system: L. infantum MHOM/MA(BE)/67 amastigotes in primary peritoneal mouse macrophages; experiment: Leishmania infantum intracellular amastigote assay in mouse macrophages; type: cell-based; settings: Macrophage, 120 h, read-out: Inhibition of Organism Growth in Leishmania infantum MHOM/MA/BE/67, 5 d [uM]
observed-property: IC50

Fill in IC50 for record O=C(Nc1ccc2c(c1)B(O)OC2)c1nc(-c2ccccn2)n[nH]1 [Example 94]
3 to 19.9 µM

Fill in IC50 for record Cc1c(C(=O)Nc2ccc3c(c2)B(O)OC3)nnn1-c1ccccc1 [Example 89]
20 to 100 µM

Fill in IC50 for record Cn1nc(C(=O)Nc2ccc3c(c2)B(O)OC3)nc1-c1cccnc1 [Example 78a]
3 to 19.9 µM

Fill in IC50 for record O=C(Nc1ccc2c(c1)B(O)OC2)c1nc(-c2ccc(F)cc2)n[nH]1 [Example 99]
< 3 µM

Fill in IC50 for record Cn1nc(-c2cccnc2)nc1C(=O)Nc1ccc2c(c1)B(O)OC2 [Example 78b]
20 to 100 µM

Fill in IC50 for record O=C(Nc1ccc2c(c1)B(O)OC2)c1nnn(-c2ccccc2)c1C(F)(F)F [Example 68]
< 3 µM

Fill in IC50 for record COc1cccc(-n2cc(C(=O)Nc3ccc4c(c3)B(O)OC4)nn2)n1 [Example 64]
< 3 µM
